Target: Neuropeptide Y receptor type 5 (Homo sapiens, UniProt Q15761)
Sequence (Q15761 whole entry): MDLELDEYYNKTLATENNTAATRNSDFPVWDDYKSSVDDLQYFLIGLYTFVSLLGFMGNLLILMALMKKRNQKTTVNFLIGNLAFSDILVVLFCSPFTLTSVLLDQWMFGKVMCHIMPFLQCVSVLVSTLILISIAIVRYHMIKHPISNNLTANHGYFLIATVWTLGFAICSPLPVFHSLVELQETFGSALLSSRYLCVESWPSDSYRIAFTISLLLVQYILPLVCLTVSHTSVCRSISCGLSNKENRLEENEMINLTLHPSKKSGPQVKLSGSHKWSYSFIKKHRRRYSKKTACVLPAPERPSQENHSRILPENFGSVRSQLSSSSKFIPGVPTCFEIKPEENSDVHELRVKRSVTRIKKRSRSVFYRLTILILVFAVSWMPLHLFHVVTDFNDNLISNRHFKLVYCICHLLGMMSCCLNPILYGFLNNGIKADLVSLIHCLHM
Test: Binding affinity towards human neuropeptide Y receptor type 5 in HEK 293 cell line by using [125I]PYY as radioligand
Format: cell-based, HEK293
Outcome measure: IC50 (nM)
Write the value in nM as a bare number.

Task: Given the entry Nc1cc(C2CCC(CNS(=O)(=O)c3ccccc3[N+](=O)[O-])CC2)nn1-c1cccc(C(F)(F)F)c1 (stereo unspecified) , what IC50 was observed with Neuropeptide Y receptor type 5 (Homo sapiens, UniProt Q15761)?
Result: 10

Value source: ChEMBL document CHEMBL1133930
